- assay target: T1, c-Met (HGF receptor) expressed on cells (human, UniProt P08581 25-1390)
- T1 construct: whole, on cells; Endogenous c-Met on tumour cell lines and on human umbilical vein endothelial cells
- T1 sequence (P08581 25-1390): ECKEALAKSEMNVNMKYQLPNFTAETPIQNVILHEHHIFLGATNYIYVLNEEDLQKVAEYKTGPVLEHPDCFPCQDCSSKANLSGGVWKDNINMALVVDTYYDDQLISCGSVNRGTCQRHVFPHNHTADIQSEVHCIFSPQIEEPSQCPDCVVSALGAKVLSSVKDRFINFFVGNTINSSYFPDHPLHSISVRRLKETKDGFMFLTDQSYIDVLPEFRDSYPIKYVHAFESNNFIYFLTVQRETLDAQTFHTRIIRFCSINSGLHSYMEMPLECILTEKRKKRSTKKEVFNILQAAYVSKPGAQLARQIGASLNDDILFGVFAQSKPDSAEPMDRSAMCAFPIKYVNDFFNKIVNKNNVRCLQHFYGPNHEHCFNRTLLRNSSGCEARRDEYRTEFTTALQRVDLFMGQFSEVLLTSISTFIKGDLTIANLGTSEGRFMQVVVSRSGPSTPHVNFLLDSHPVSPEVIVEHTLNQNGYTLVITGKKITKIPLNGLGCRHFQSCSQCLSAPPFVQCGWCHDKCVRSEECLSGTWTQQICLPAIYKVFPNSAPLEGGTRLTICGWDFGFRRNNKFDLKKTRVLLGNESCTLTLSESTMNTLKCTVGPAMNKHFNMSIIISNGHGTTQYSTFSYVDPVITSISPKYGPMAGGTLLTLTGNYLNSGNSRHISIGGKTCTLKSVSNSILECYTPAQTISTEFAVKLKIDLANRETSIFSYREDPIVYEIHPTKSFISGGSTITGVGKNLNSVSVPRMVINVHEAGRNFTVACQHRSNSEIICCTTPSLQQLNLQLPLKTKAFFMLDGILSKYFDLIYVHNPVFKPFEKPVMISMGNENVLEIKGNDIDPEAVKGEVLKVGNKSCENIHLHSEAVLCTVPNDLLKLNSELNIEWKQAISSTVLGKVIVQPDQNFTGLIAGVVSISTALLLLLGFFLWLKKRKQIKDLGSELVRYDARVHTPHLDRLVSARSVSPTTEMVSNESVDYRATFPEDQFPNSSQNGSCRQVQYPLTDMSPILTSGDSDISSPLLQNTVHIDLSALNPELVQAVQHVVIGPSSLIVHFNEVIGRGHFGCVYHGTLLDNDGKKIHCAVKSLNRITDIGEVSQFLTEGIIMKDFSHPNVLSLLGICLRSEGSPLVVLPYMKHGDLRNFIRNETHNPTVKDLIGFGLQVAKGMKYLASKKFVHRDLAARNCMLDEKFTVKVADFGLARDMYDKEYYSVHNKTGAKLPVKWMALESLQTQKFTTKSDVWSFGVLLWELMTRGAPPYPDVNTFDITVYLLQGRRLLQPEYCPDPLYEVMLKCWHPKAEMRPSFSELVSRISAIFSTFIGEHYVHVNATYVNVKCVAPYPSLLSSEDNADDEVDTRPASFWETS
- method description: flow cytometry, antibody titration on DU-145 prostate cancer cells, PE anti-human IgG
reported metric: pEC50
Remember, pEC50 is on a log scale: it is -log10 of the molar concentration.

binder	value measured
A1-4 anti-c-Met antibody (antibody, V domains shown, Detected with anti-human IgG (gamma-chain specific)) VH: QVQLQESGPGLVKPSQTLSLTCTVSGGSISSGGYYWSWIRQHPGKGLEWIGESSHSGSTNYNPSLKSRVTISVDTSKNQFSLKLSSVTAADTAVYYCARGRDGYYFDAWGQGTLVTVSS VL: LPVLTQPASVSGSPGQSITISCTGTSSDVGGYPYVSWYQQHPGKAPKLMIYVVSDRPSGVSTRFSGSKSGNTASLTISGLQAEDEADYYCSSYRSSSALVVFGGGTQLTVL	10.77
A1-9 anti-c-Met antibody (antibody, V domains shown, Detected with anti-human IgG (gamma-chain specific)) VH: QVQLQESGPGLVKPSQTLSLTCTVSGGSISSGGYYWSWIRQHPGKGLEWIGEISHSGSTNYNPSLKSRVTISVDTSKNQFSLKLSSVTAADTAVYYCARGRDGYYLDQWGQGTLVTVSS VL: LPVLTQPASVSGSPGQSITISCTGTSSDVGGYNYVSWYQQHPGKAPKLMIYNVSDRPSGVSTRFSGSKSGNTASLTISGLQAEDEADYYCSSFRSSSALVVFGGGTKLTVL	10.24
A1-24 anti-c-Met antibody (antibody, V domains shown, Detected with anti-human IgG (gamma-chain specific)) VH: QVQLQESGPGLVKPSQTLSLTCTVSGGSISSGGYYWSWIRQHPGKGLEWIGESTHSGSTNYNPSLESRVTISVDTSKNQFSLKLSSVTAADTAVYYCARGRDSYDFDAWGQGTLVTVSS VL: LPVLTQPASVSGSPGQSITISCTGTSFDVGGYNYVSWYQQHPGKAPKLMIYDVSDRPSGVSTRFSGSKSGNTASLTISGLQAEDEADYYCSSFRSSAALVVFGGGTKLTVL	11.52

Query: pEC50; subject: A1-32 anti-c-Met antibody (antibody, V domains shown, Detected with anti-human IgG (gamma-chain specific)) VH: QVQLQESGPGLVKPSQTLSLTCTVSGGSISSGGYYWSWIRQHPGKGLEWIGESTHSGSTNYNPSLDSRVTISVDTSKNQFSLKLSSVTAADTAVYYCARGRDGYYLDQWGQGTLVTVSS VL: LPVLTQPASVSGSPGQSITISCTGTSFDVGGYPYVSWYQQHPGKAPKLMIYDVSDRPSGVSTRFSGSKSGNTASLTISGLQAEDEADYYCSSFRSSAALVVFGGGTKLTVL
Reply: 10.19
